Measured EC50 accompanies every entry in the list below.
# target-or-test-system: T1, His-tagged human 4-1BB protein (human, UniProt Q07011 24-186)
# T1 construct: Coated on ELISA plates at 2 µg/ml; also called hu4-1BB; soluble human 4-1BB; not shown: His tag
# assay-text: ELISA, coated His-tagged 4-1BB, anti-human IgG-HRP
readout-type: EC50

binder="VV02-1SP (1)-358 (Fc fusion, not shown: a dimerising Fc or GST; small tags and cut ends, Llama nanobody tested as fusion with human IgG1 Fc (N297A)) VHH: EVQLVESGGGLVQPGGSLMISCAASGFTFSSSAMSWARQVPGKGFEWVAYIYSDGSTYYADSVKGRFTISRDNAKDTVYLHMNSLKFEDMAVYYCATWRSQQVGRWDKYDYWGQGTQVTVSS" experimental_value="> 30 nM"
binder="VV02-1SP (1)-73 (Fc fusion, not shown: a dimerising Fc or GST; small tags and cut ends, Llama nanobody tested as fusion with human IgG1 Fc (N297A)) VHH: EVDLVESGGGLVQPGGSLRLSCAVSGFTFSNSAMSWARQAPGKEFEWVSSIYSDGKTYYVDSVKGRFTISRDNAKNTVYLQMSSLKPEDTAVYYCATWKTLRVGVWDESDYWGQGTQVTVSS" experimental_value="> 30 nM"
binder="VV02-3LP-142 (Fc fusion, Llama nanobody tested as fusion with human IgG1 Fc (N297A); not shown: Human IgG1 Fc fragment with N297A, plus the hinge or linker joining it to the nanobody) VHH: AVQLVESGGGLVQRGGSLKLSCVGSGFDFSDHAMSWARQVPGKGFEWVAYIYSDGSTYYADSVKGRFTISRDNAKDTVYLHMNSLKFEDMAVYYCATWRSQQVGRWDEYDHWGQGTQVTVSS" experimental_value="> 30 nM"
binder="VV02-1LP-238 (Fc fusion, not shown: a dimerising Fc or GST; small tags and cut ends, Llama nanobody tested as fusion with human IgG1 Fc (N297A)) VHH: QVQLVESGGGLVQAGGALRLSCAASGFTLDYSAIGWFRQAPGKEREGVLCISSSGDVTIYADSVKGRFTISRDNAKNTVYLQMNSLKPEDTAVYYCVAPRICSTYSSDDYWGQGTQVTVSS" experimental_value="9.12 nM"
